Tested on: human lung cancer strain NCI-H441
Assay type: cell-based
Description: A test compound was dispensed into a U-bottom 384-well plate as 40 nL serially diluted dimethyl sulfoxide solutions using a liquid handler Echo (LABCYTE). […] This cell suspension was dispensed in an amount of 40 µL per well into a plate containing the test compound, and cultured at 37°C in a 5% carbon dioxide gas incubator. Four days later, 20 µL of CellTiter-Glo (registered trademark) (Promega) was added to each well and […] was measured. […]
pIC50: −log10 of the molar value. Where a SMILES comes first, the peptide text is derived from it. Bridges are numbered along the chain shown (N, C = ends). [ ]: non-standard residue; d: D form. The star is where a group is joined. hPhe(3-Cl-4-CF3) = N[C@@H](CCc1ccc(C(F)(F)F)c(Cl)c1)C(=O)O; NPrPhe(4-CF3) = CCCN[C@@H](Cc1ccc(C(F)(F)F)cc1)C(=O)O; Pro(4-spirocPr) = O=C(O)[C@@H]1CC2(CC2)CN1; NMeGly(cPent) = CN[C@H](C(=O)O)C1CCCC1; NMeD = CN[C@@H](CC(=O)O)C(=O)O; NMeL = CN[C@@H](CC(C)C)C(=O)O; Morpholide = C1CN(*)CCO1; Ac5c = NC1(C(=O)O)CCCC1; Sar = CNCC(=O)O
Outcome label depends on pIC50 relative to 8: at/above gives Satisfied, below gives Not satisfied.

MOLECULE: CCCN1C(=O)CN(C)C(=O)CN(C)C(=O)[C@H]([C@@H](C)CC)NC(=O)[C@H](CC(C)C)N(C)C(=O)C[C@@H](C(=O)N2CCOCC2)N(C)C(=O)[C@H](C2CCCC2)N(C)C(=O)C2(CCCC2)NC(=O)[C@@H]2CC3(CC3)CN2C(=O)[C@H](CCc2ccc(C(F)(F)F)c(Cl)c2)NC(=O)CN(C)C(=O)[C@@H]1Cc1ccc(C(F)(F)F)cc1 [PP0261] ([NMeL]I[Sar][Sar][NPrPhe(4-CF3)][Sar][hPhe(3-Cl-4-CF3)][Pro(4-spirocPr)][Ac5c][NMeGly(cPent)][NMeD]-Morpholide; lactam N-11)
CLASS LABEL: Satisfied

MOLECULE: CCC[C@H]1C(=O)N[C@@H]([C@@H](C)CC)C(=O)N(C)CC(=O)N(C)[C@H]2C/C=C\CCN(C2=O)[C@@H](Cc2ccc(C)cc2)C(=O)N(C)CC(=O)N[C@@H](CCc2ccc3ccn(C)c3c2)C(=O)N2C[C@H](OCC)C[C@H]2C(=O)NC2(CC(C)(C)C2)C(=O)N(C)[C@@H](C(CC)CC)C(=O)N(C)[C@H](C(=O)N(C)C)CC(=O)N1C [PP2914]
CLASS LABEL: Not satisfied

MOLECULE: CCO[C@@H]1C[C@H]2C(=O)NC3(CCC3)C(=O)N(C)[C@@H](C3CCCC3)C(=O)N(C)[C@H](C(=O)N(C)C)CC(=O)N(C)[C@@H](C)C(=O)N[C@@H]([C@@H](C)CC)C(=O)N(C)CC(=O)N(C)[C@H]3CCCCCN(C3=O)[C@@H](Cc3ccc(C(F)(F)F)cc3)C(=O)N(C)CC(=O)N[C@@H](CCc3cc(F)c(C(F)(F)F)c(F)c3)C(=O)N2C1 [PP0476]
CLASS LABEL: Satisfied

MOLECULE: CCO[C@@H]1C[C@H]2C(=O)NC3(CCC3)C(=O)N(C)[C@@H](C3CCCC3)C(=O)N(C)[C@H](C(=O)N(C)C)CC(=O)N(C)[C@@H](C)C(=O)N[C@@H]([C@H](C)CC)C(=O)N(C)CC(=O)N(C)[C@H]3CCCCCN(C3=O)[C@@H](Cc3ccc(C(F)(F)F)cc3)C(=O)N(C)CC(=O)N[C@@H](CCc3cc(F)c(C(F)(F)F)c(F)c3)C(=O)N2C1 [PP0729]
CLASS LABEL: Not satisfied

----------
molecular target: GDP-bound KRAS wild-type protein (Homo sapiens, UniProt P01116); experiment: Binding to KRAS by surface plasmon resonance (SPR), dissociation constant KD; conditions: Single Cycle Kinetics, 1:1 binding model
Sequence (P01116 1-188 isoform P01116-2): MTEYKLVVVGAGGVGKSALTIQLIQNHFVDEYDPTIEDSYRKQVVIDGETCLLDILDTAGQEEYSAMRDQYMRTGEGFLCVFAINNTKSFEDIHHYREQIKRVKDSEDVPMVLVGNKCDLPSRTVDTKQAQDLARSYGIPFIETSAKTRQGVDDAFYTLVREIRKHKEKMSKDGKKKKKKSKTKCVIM
Where a SMILES comes first, the peptide text is derived from it. Bridges are numbered along the chain shown (N, C = ends). [ ]: non-standard residue; d: D form. The star is where a group is joined. hPhe(3-Cl-4-CF3) = N[C@@H](CCc1ccc(C(F)(F)F)c(Cl)c1)C(=O)O; NPrPhe(4-CF3) = CCCN[C@@H](Cc1ccc(C(F)(F)F)cc1)C(=O)O; NMeGly(cPent) = CN[C@H](C(=O)O)C1CCCC1; Pro(4,4-F2) = O=C(O)[C@@H]1CC(F)(F)CN1; NMeD = CN[C@@H](CC(=O)O)C(=O)O; NMeL = CN[C@@H](CC(C)C)C(=O)O; Morpholide = C1CN(*)CCO1; Aze = O=C(O)[C@@H]1CCN1; Ac4c = NC1(C(=O)O)CCC1; Sar = CNCC(=O)O

MOLECULE: CCOC[C@H]1C(=O)N[C@@H]([C@@H](C)CC)C(=O)N(C2CC2)CC(=O)N(C)[C@H]2C/C=C\CCN(C2=O)[C@@H](Cc2ccc(C(F)(F)F)cc2)C(=O)N(C)CC(=O)N[C@@H](CCc2ccc(C(F)(F)F)c(OC)c2)C(=O)N2C[C@H](OCC)C[C@H]2C(=O)N(C)C2(CCC2)C(=O)N(C)[C@@H](C(CC)CC)C(=O)N(C)[C@H](C(=O)N(C)C)CC(=O)N1C
EXPERIMENTAL SYSTEM: GDP-bound KRAS wild-type protein (Homo sapiens, UniProt P01116)
Kd [nM]: 0.33
//
MOLECULE: CCCN1C(=O)CN(C)C(=O)[C@@H]2CCN2C(=O)[C@H]([C@@H](C)CC)NC(=O)[C@H](CC(C)C)N(C)C(=O)C[C@@H](C(=O)N2CCOCC2)N(C)C(=O)[C@H](C2CCCC2)N(C)C(=O)C2(CCC2)NC(=O)[C@@H]2CC(F)(F)CN2C(=O)[C@H](CCc2ccc(C(F)(F)F)c(Cl)c2)NC(=O)CN(C)C(=O)[C@@H]1Cc1ccc(C(F)(F)F)cc1 [PP0404] ([NMeL]I[Aze][Sar][NPrPhe(4-CF3)][Sar][hPhe(3-Cl-4-CF3)][Pro(4,4-F2)][Ac4c][NMeGly(cPent)][NMeD]-Morpholide; lactam N-11)
EXPERIMENTAL SYSTEM: GDP-bound KRAS wild-type protein (Homo sapiens, UniProt P01116)
Kd [nM]: 0.37
//
MOLECULE: CC[C@H](C)[C@@H]1NC(=O)[C@H](CC(C)C)N(C)C(=O)C[C@@H](C(=O)N2CCOCC2)N(C)C(=O)[C@H](C2CCC2)N(C)C(=O)C2(CCCC2)NC(=O)[C@@H]2CCCN2C(=O)[C@H](CCc2cc(F)c(C(F)(F)F)c(F)c2)NC(=O)CN(C)C(=O)[C@H](Cc2ccc(C(F)(F)F)cc2)N2CCCCC[C@@H](C2=O)N(C)C(=O)CN(C)C1=O
EXPERIMENTAL SYSTEM: GDP-bound KRAS wild-type protein (Homo sapiens, UniProt P01116)
Kd [nM]: 14
